Where do these numbers come from? They come from paper PMC11574364.

Target: hnRNP-H2 (Homo sapiens, UniProt P55795)
Sequence: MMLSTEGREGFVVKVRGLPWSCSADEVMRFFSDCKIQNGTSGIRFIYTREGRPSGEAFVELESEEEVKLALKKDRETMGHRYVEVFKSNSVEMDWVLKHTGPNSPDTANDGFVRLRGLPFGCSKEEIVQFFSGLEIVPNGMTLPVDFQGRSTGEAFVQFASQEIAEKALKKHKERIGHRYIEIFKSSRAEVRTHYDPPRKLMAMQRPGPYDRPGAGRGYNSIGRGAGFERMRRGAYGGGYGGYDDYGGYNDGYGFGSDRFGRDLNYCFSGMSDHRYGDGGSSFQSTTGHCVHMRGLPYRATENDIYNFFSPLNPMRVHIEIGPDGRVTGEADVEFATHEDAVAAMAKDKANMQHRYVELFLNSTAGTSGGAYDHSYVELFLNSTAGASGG
Test: protein domain microarray probed with biotinylated miRNA; Domain array: 20 mM Tris-HCl pH 7.4, 200 mM KCl, 0.2 mM EDTA, 0.05% NP40, 2 ug/ul heparin, overnight 4 C. ORF array: PBS pH 7.0 with RNase inhibitor, 100 ng RNA; high values mean tight binding
Conditions: ssRNA
Hi, to clarify the labels: Met covers binding signal from 700 fluorescence intensity upward, Not met covers anything below 700 fluorescence intensity.

Q: Quick check, binding signal >= 700 fluorescence intensity? UAGCUUAUCAGACUGAUGUUGA
A: Not met

Q: Quick check, binding signal >= 700 fluorescence intensity? UGAGGUAGUAGGUUGUGUGGUU
A: Met

Q: Quick check, binding signal >= 700 fluorescence intensity? UGAGGUAGUAGGUUGUAUAGUU
A: Not met

Q: Quick check, binding signal >= 700 fluorescence intensity? UGAGGUAGUAGGUUGUAUGGUU
A: Not met

Q: Quick check, binding signal >= 700 fluorescence intensity? AGAGGUAGUAGGUUGCAUAGUU
A: Met

###

target: VIGILIN(11-14) (Homo sapiens, UniProt Q00341); assay: protein domain microarray probed with biotinylated miRNA; Domain array: 20 mM Tris-HCl pH 7.4, 200 mM KCl, 0.2 mM EDTA, 0.05% NP40, 2 ug/ul heparin, overnight 4 C. ORF array: PBS pH 7.0 with RNase inhibitor, 100 ng RNA; high values mean tight binding; details: ssRNA
Sequence (Q00341 861-1229): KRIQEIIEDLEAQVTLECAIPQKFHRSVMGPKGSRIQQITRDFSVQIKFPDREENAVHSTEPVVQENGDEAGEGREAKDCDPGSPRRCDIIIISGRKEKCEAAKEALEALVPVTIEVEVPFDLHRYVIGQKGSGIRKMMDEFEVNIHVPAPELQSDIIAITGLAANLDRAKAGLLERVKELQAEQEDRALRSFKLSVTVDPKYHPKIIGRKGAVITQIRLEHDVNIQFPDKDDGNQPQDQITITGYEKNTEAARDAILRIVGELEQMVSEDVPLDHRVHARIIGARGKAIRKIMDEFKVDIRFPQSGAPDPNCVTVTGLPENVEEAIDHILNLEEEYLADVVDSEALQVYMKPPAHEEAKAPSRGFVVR
binding signal reference
Respond with the bare value in fluorescence intensity.

Known results for sequences:
Query sequence | Test target | Unit | Value
CAGUGCAAUGAUGAAAGGGCAU | VIGILIN(11-14) (Homo sapiens, UniProt Q00341) | fluorescence intensity | 287
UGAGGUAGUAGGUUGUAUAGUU | VIGILIN(11-14) (Homo sapiens, UniProt Q00341) | fluorescence intensity | 145
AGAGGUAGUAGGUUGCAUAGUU | VIGILIN(11-14) (Homo sapiens, UniProt Q00341) | fluorescence intensity | 285

Please find the next sequence below.
Per the records, this sequence ( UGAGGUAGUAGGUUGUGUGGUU ) has binding signal equal to 968

###

Molecular target: G3BP-2 (Homo sapiens, UniProt Q9UN86)
Sequence: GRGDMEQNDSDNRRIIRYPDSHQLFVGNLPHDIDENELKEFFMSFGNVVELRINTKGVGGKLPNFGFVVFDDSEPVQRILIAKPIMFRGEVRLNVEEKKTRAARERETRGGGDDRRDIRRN
Experiment: protein domain microarray probed with biotinylated miRNA; Domain array: 20 mM Tris-HCl pH 7.4, 200 mM KCl, 0.2 mM EDTA, 0.05% NP40, 2 ug/ul heparin, overnight 4 C. ORF array: PBS pH 7.0 with RNase inhibitor, 100 ng RNA; high values mean tight binding
Conditions: ssRNA
Hi, to clarify the labels: met covers binding signal from 300 fluorescence intensity upward, not met covers anything below 300 fluorescence intensity.

Query sequence | Assigned category
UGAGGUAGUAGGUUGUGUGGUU | met

Q: Quick check, binding signal >= 300 fluorescence intensity? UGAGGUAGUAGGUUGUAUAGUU
A: not met
